Cited source for all entries: patent US7407982B2

# TARGET_ENTITY: human α-thrombin (Homo sapiens)
# Construct: 50 μl human α-thrombin (Kordia); purchased Kordia
# PROCEDURE_TEXT: Determination of Ki for thrombin inhibition (chromogenic or fluorogenic substrate, Dixon)
# Assay type: biochemical
# EXPERIMENTAL_SETUP: Table 2, selectivity quotient
MEASURED_PROPERTY: Ki Trypsin/Ki Thrombin
Would you mind answering with just the numeric figure?

Solved cases (2 shown):
COc1ccc(S(=O)(=O)N[C@@H](CC(=O)NCc2ccccc2)C(=O)N2CCC[C@H]2C(=O)NCc2ccc(C(=N)N)cc2)cc1 [compound 47]: 600
N=C(N)c1ccc(CNC(=O)[C@@H]2CCCN2C(=O)CNS(=O)(=O)c2ccc3ccccc3c2)cc1 [compound 12]: 6.8

Give the reported Ki Trypsin/Ki Thrombin for this compound. COc1ccc(S(=O)(=O)N[C@@H](CC(=O)NCc2ccc(C#N)cc2)C(=O)N2CCC[C@H]2C(=O)NCc2ccc(C(=N)N)cc2)cc1 [compound 44]
911

Give the reported Ki Trypsin/Ki Thrombin for this compound. N=C(N)c1ccc(CNC(=O)[C@@H]2CCCN2C(=O)[C@H](CN)NS(=O)(=O)c2ccc3ccccc3c2)cc1 [compound 37]
4.3

Give the reported Ki Trypsin/Ki Thrombin for this compound. N=C(N)c1ccc(CNC(=O)C2CCCN2C(=O)C(CCC(N)=O)NS(=O)(=O)c2ccc3ccccc3c2)cc1 (stereo not shown) [compound 40]
4.2

Give the reported Ki Trypsin/Ki Thrombin for this compound. N=C(N)c1ccc(CNC(=O)C2CCCN2C(=O)C(CC(N)=O)NS(=O)(=O)c2ccc3ccccc3c2)cc1 (stereo not shown) [compound 39]
11

Give the reported Ki Trypsin/Ki Thrombin for this compound. N=C(N)c1ccc(CNC(=O)C2CCCN2C(=O)C(CC(=O)O)NS(=O)(=O)c2ccc3ccccc3c2)cc1 (stereo not shown) [compound 42]
2.9

###

# TARGET_ENTITY: human α-thrombin (Homo sapiens, UniProt P00734)
# Construct: 50 μl human α-thrombin (Kordia); purchased Kordia
# PROCEDURE_TEXT: Determination of Ki for thrombin inhibition (chromogenic or fluorogenic substrate, Dixon)
# Assay type: biochemical
# EXPERIMENTAL_SETUP: Example 8; read-out: KiThrombin
Ki: recorded values
Give the number first and the unit second.

Solved cases (3 shown):
N=C(N)N1CCC(CNC(=O)C2CCCN2C(=O)C(CC2CCCCC2)NCC(=O)O)CC1 (stereo not shown) [reference compound]: 1.3 nM
N=C(N)c1ccc(CNC(=O)C2CCCN2C(=O)C(CC2CCCCC2)NCC(=O)O)cc1 (stereo not shown) [reference compound]: 0.3 nM
COc1ccc(S(=O)(=O)NC(CC(=O)O)C(=O)N2CCCC2C(=O)NCc2ccc(C(=N)N)cc2)cc1 (stereo not shown) [No. 55]: 1.6 nM

Please examine the following record next.
Give the reported Ki for this molecule. COc1ccc(S(=O)(=O)NC(CCCCN)C(=O)N2CCCC2C(=O)NCc2ccc(C(=N)N)cc2)cc1 (stereo not shown) [No. 53]
0.73 nM

###

# TARGET_ENTITY: human α-thrombin (Homo sapiens, UniProt P00734)
# Construct: 50 μl human α-thrombin (Kordia); purchased Kordia
# PROCEDURE_TEXT: Determination of Ki for thrombin inhibition (chromogenic or fluorogenic substrate, Dixon)
# Format: biochemical
# EXPERIMENTAL_SETUP: Table 2, selectivity quotient
Ki Trypsin/Ki Thrombin: recorded values
Would you mind answering with just the numeric figure?

N=C(N)c1ccc(CNC(=O)[C@@H]2CCCN2C(=O)[C@@H](CC(N)=O)NS(=O)(=O)c2ccc3ccccc3c2)cc1: 0.42
COc1ccc(S(=O)(=O)NCC(=O)N2CCC[C@H]2C(=O)NCc2ccc(C(=N)N)cc2)cc1: 23.4
COc1ccc(S(=O)(=O)N[C@@H](CC(=O)O)C(=O)N2CCC[C@H]2C(=O)NCc2ccc(C(=N)N)cc2)cc1: 48

Please examine the following record next.
Give the reported Ki Trypsin/Ki Thrombin for this compound. COC(=O)C[C@H](NS(=O)(=O)c1ccc(OC)cc1)C(=O)N1CCC[C@H]1C(=O)NCc1ccc(C(=N)N)cc1
31

###

# TARGET_ENTITY: human α-thrombin (Homo sapiens, UniProt P00734)
# Construct: 50 μl human α-thrombin (Kordia); purchased Kordia
# PROCEDURE_TEXT: Determination of Ki for thrombin inhibition (chromogenic or fluorogenic substrate, Dixon)
# Format: biochemical
# EXPERIMENTAL_SETUP: Table 2, formula (III) compounds
pKi: −log10 of the molar value.
Decision: pKi >= 8 yields 1.0, all other cases yield 0.0.

Is pKi for COc1ccc(S(=O)(=O)N[C@@H](CC(=O)NCc2ccccc2)C(=O)N2CCC[C@H]2C(=O)NCc2ccc(C(=N)N)cc2)cc1 at or above 8?
1.0

###

# TARGET_ENTITY: thrombin (Homo sapiens)
# PROCEDURE_TEXT: Kinetic constants of chloromethyl ketone inhibitors (method of Stein and Trainor)
# Type: biochemical
# EXPERIMENTAL_SETUP: chloromethyl ketone inhibitor; read-out: Kii
MEASURED_PROPERTY: pKi
The read-out pKi is expressed as -log10 of concentration in moles per litre.

Give the reported pKi for this substance. H-d-N(CH2—CONH-PEG2000-OMe)Cha-Pro-Arg-CH2—Cl×2 trifluoroacetic acid
7.97

###

# TARGET_ENTITY: human α-thrombin (Homo sapiens, UniProt P00734)
# Construct: 50 μl human α-thrombin (Kordia); purchased Kordia
# PROCEDURE_TEXT: Determination of Ki for thrombin inhibition (chromogenic or fluorogenic substrate, Dixon)
# Assay type: biochemical
# EXPERIMENTAL_SETUP: Table I, selectivity quotient
# Method: The Ki values are the average values of at least three calculations. For determining the thrombin inhibiting effect of all reversibly binding inhibitors and inhibitor conjugates with inhibiting constants smaller than 1 nM, a fluorescence spectrometer (LS50B from the company Perkin Elmer) was used. […] The Ki values are the average values of at least three calculations.
Ki Trypsin/Ki Thrombin: recorded values
Would you mind answering with just the numeric figure?

N=C(N)c1ccc(CNC(=O)[C@@H]2CCCN2C(=O)CNS(=O)(=O)c2cc(Cl)c(Cl)cc2Cl)cc1: 3.3
Cc1cc(C)c(C)c(S(=O)(=O)NCC(=O)N2CCC[C@H]2C(=O)NCc2ccc(C(=N)N)cc2)c1C: 2.5
N=C(N)c1ccc(CNC(=O)[C@@H]2CCCN2C(=O)CNS(=O)(=O)c2ccc(Cl)cc2)cc1: 2.7

Give the reported Ki Trypsin/Ki Thrombin for this compound. N=C(N)c1ccc(CNC(=O)[C@@H]2CCCN2C(=O)CNS(=O)(=O)c2ccccc2Cl)cc1
0.98

###

Ki: recorded values
# TARGET_ENTITY: trypsin (Bos taurus, UniProt P00760)
# Sequence (P00760 24-246): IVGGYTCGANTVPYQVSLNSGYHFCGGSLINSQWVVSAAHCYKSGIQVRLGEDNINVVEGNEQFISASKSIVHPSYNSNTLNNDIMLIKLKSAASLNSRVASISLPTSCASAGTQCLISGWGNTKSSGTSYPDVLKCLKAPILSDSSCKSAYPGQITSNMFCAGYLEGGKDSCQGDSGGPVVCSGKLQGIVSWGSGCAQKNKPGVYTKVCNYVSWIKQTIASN
# PROCEDURE_TEXT: Ki values for trypsin, determined analogously
# Format: biochemical
# EXPERIMENTAL_SETUP: Table 2, formula (III) compounds
Lab book: enter the figure in nM, no units written.

Solved cases (2 shown):
COc1ccc(S(=O)(=O)N[C@@H](CC(=O)NCc2cccc(CN)c2)C(=O)N2CCC[C@H]2C(=O)NCc2ccc(C(=N)N)cc2)cc1: 41
COc1ccc(S(=O)(=O)N[C@@H](CC(=O)NCc2ccc(CN)cc2)C(=O)N2CCC[C@H]2C(=O)NCc2ccc(C(=N)N)cc2)cc1: 39

Please examine the following record next.
Give the reported Ki for this compound. COc1ccc(S(=O)(=O)N[C@@H](CC(=O)OCc2ccccc2)C(=O)N2CCC[C@H]2C(=O)NCc2ccc(C(=N)N)cc2)cc1
38

###

# TARGET_ENTITY: human α-thrombin (Homo sapiens, UniProt P00734)
# Construct: 50 μl human α-thrombin (Kordia); purchased Kordia
# PROCEDURE_TEXT: Determination of Ki for thrombin inhibition (chromogenic or fluorogenic substrate, Dixon)
# Assay type: biochemical
# EXPERIMENTAL_SETUP: Table 2, formula (III) compounds
# Experimental: The Ki values are the average values of at least three calculations. For determining the thrombin inhibiting effect of all reversibly binding inhibitors and inhibitor conjugates with inhibiting constants smaller than 1 nM, a fluorescence spectrometer (LS50B from the company Perkin Elmer) was used. […] The Ki values are the average values of at least three calculations.
Ki: recorded values
Lab book: enter the figure in nM, no units written.

COc1ccc(S(=O)(=O)NC(CC(=O)NCc2cccc(C#N)c2)C(=O)N2CCCC2C(=O)NCc2ccc(C(=N)N)cc2)cc1 (centres unmarked): 0.061
COc1ccc(S(=O)(=O)N[C@@H](CC(=O)OCc2ccccc2)C(=O)N2CCC[C@H]2C(=O)NCc2ccc(C(=N)N)cc2)cc1: 0.21
N=C(N)c1ccc(CNC(=O)[C@@H]2CCCN2C(=O)[C@H](CC(=O)OCc2ccccc2)NS(=O)(=O)c2ccc3ccccc3c2)cc1: 1.3
N=C(N)c1ccc(CNC(=O)C2CCCN2C(=O)C(CC(N)=O)NS(=O)(=O)c2ccc3ccccc3c2)cc1 (centres unmarked): 3.4

Please examine the following record next.
Report Ki from human α-thrombin (Homo sapiens, UniProt P00734) testing of N=C(N)c1ccc(CNC(=O)[C@@H]2CCCN2C(=O)[C@@H](CC(N)=O)NS(=O)(=O)c2ccc3ccccc3c2)cc1
52.5
